System: U-937 (hystiocytic lymphoma)
Assay: 72-hour IC50 determination for non-adherent cells using MTS
Format: cell-based, human
Details: 72-hour exposure; MTS; error is standard deviation of the mean, n ≧ 3; read-out: U-937, 72-hour IC50 (Table E1-1)
Give measured IC50 for each item. Keep answers brief.
Please give a number only; it is taken to be in nM.

Data request: Data request, read-out IC50, for `CC(=O)OC[C@]12SSS[C@@]3(C[C@]4([C@]56C[C@@]78SSS[C@@](COC(C)=O)(C(=O)N7[C@H]5N(C(=O)C(F)(F)F)c5ccccc56)N(C)C8=O)c5ccccc5N(C(=O)C(F)(F)F)[C@@H]4N3C1=O)C(=O)N2C`
Data returned: 8.9

Data request: Please look up its IC50: CN1C(=O)[C@@]23C[C@]4([C@]56C[C@@]78SS[C@@](C)(C(=O)N7[C@H]5Nc5ccccc56)N(C)C8=O)c5ccccc5N[C@@H]4N2C(=O)[C@]1(C)SS3 [Compound 3, (+)-12,12′-dideoxyverticillin A]
Data returned: 15.5

Data request: Would you kindly share the measured IC50 for `CC(=O)OC[C@]12SSS[C@@]3(C[C@]4([C@]56C[C@@]78SSS[C@@](COC(C)=O)(C(=O)N7[C@H]5Nc5ccccc56)N(C)C8=O)c5ccccc5N[C@@H]4N3C1=O)C(=O)N2C` ?
Data returned: 9.7

Data request: Name the recorded IC50 for `CN1C(=O)[C@@]23C[C@]4(c5c[nH]c6ccccc56)c5ccccc5N(S(=O)(=O)c5ccccc5)[C@@H]4N2C(=O)[C@]1(C)SS3` .
Data returned: 56
